Reference source: ChEMBL document CHEMBL3124875

Test system: MCF7
Assay: Cytotoxicity against human MCF7 cells at 30 uM after 72 hrs by MTT assay
Assay type: functional
Settings: MCF7, 72 h
QUANTITY_KIND: inhibition at 30 µM (%)
# output: bare number, implied unit %

input: Provide value of inhibition at 30 µM for this record tested with MCF7: C[C@]12CC[C@H]3[C@@H](CC=C4C[C@@H](O)CC[C@@]43C)[C@@H]1CC[C@@H]2c1nnc(-c2ccco2)o1
output: 46.6

input: Provide value of inhibition at 30 µM for this record tested with MCF7: CC(=O)O[C@H]1CC[C@@]2(C)C(=CC[C@H]3[C@@H]4CC[C@H](/C=N/NC(=O)c5ccco5)[C@@]4(C)CC[C@@H]32)C1
output: 55.1

input: Provide value of inhibition at 30 µM for this record tested with MCF7: CC(=O)O[C@H]1CC[C@@]2(C)C(=CC[C@H]3[C@@H]4CC[C@H]([C@H]5OC(c6ccccc6)=NN5C(C)=O)[C@@]4(C)CC[C@@H]32)C1
output: 26.7

input: Provide value of inhibition at 30 µM for this record tested with MCF7: CC(=O)O[C@H]1CC[C@@]2(C)C(=CC[C@H]3[C@@H]4CC[C@H](c5nnc(-c6cccnc6)o5)[C@@]4(C)CC[C@@H]32)C1
output: 55.7

input: Provide value of inhibition at 30 µM for this record tested with MCF7: C[C@]12CC[C@H]3[C@@H](CC=C4C[C@@H](O)CC[C@@]43C)[C@@H]1CC[C@@H]2/C=N/NC(=O)c1cccnc1
output: 82.9

input: Provide value of inhibition at 30 µM for this record tested with MCF7: CC(=O)O[C@H]1CC[C@@]2(C)C(=CC[C@H]3[C@@H]4CC[C@H](/C=N/NC(=O)c5ccccc5)[C@@]4(C)CC[C@@H]32)C1
output: 44.4

input: Provide value of inhibition at 30 µM for this record tested with MCF7: CC(=O)O[C@H]1CC[C@@]2(C)C(=CC[C@H]3[C@@H]4CC[C@H](c5nnc(-c6ccccc6)o5)[C@@]4(C)CC[C@@H]32)C1
output: 41.5

input: Provide value of inhibition at 30 µM for this record tested with MCF7: C[C@]12CC[C@H]3[C@@H](CC=C4C[C@@H](O)CC[C@@]43C)[C@@H]1CC[C@@H]2/C=N/NC(=O)c1ccco1
output: 53.2

---

Tested on: A-431
Experiment: Cytotoxicity against human A431 cells after 72 hrs by MTT assay
Type: functional, cell-based
Conditions: A-431, 72 h
Lab note: compare IC50 with 10 µM, writing class 1 if less and class 0 if equal or more.

chem_smiles=C[C@]12CC[C@H]3[C@@H](CC=C4C[C@@H](O)CC[C@@]43C)[C@@H]1CC[C@@H]2c1nnc(-c2cccnc2)o1 label_class="class 1"
chem_smiles=CC(=O)O[C@H]1CC[C@@]2(C)C(=CC[C@H]3[C@@H]4CC[C@H](c5nnc(-c6cccnc6)o5)[C@@]4(C)CC[C@@H]32)C1 label_class="class 0"

input: Please indicate whether the reported IC50 of C[C@]12CC[C@H]3[C@@H](CC=C4C[C@@H](O)CC[C@@]43C)[C@@H]1CC[C@@H]2c1nnc(-c2ccco2)o1 is strictly below 10 µM.
output: class 1

input: Please indicate whether the reported IC50 of C[C@]12CC[C@H]3[C@@H](CC=C4C[C@@H](O)CC[C@@]43C)[C@@H]1CC[C@@H]2c1nnc(-c2ccccc2)o1 is strictly below 10 µM.
output: class 1

input: Please indicate whether the reported IC50 of CC(=O)O[C@H]1CC[C@@]2(C)C(=CC[C@H]3[C@@H]4CC[C@H](c5nnc(-c6ccccc6)o5)[C@@]4(C)CC[C@@H]32)C1 is strictly below 10 µM.
output: class 0

input: Please indicate whether the reported IC50 of C[C@]12CC[C@H]3[C@@H](CC=C4C[C@@H](O)CC[C@@]43C)[C@@H]1CC[C@@H]2/C=N/NC(=O)c1cccnc1 is strictly below 10 µM.
output: class 0
